Tested on: PCSK9 gene
Assay: PCSK9 gRNA/SpCas9 editing in primary human hepatocytes (Tables 2, 4)
Assay type: cell-based
Settings: 100 ng/RNA/mL; SpCas9 mRNA MS002 1:1 by weight
In the oligonucleotide strings, read from the 5' end, every base follows the letter of its sugar. An asterisk marks phosphorothioate; unmarked linkages are phosphodiester. Other units and linkages are bracketed, terminal groups are in braces. A string of capitals states the bases alone. m = 2'-O-methyl; r = 2'-OH (RNA)
Entries and their Human Primary Hepatocyte Editing % 100
The answer is to be given in %; state only the numeric part.

Field: example entries. Status: answers known.
- molecule: "GA157: PCSK9 gRNA; protospacer GCCGTCCTCCTCGGAACGCA (SEQ ID NO: 151) (nucleic acid) guide: mG*mC*mC*rGrUrCrCrUrCrCrUrCrGrGrArArCrGrCrArGrUrUrUrUrArGrArGrCrUrArGrArArArUrArGrCrArArGrUrUrArArArArUrArArGrGrCrUrArGrUrCrCrGrUrUrArUrCrArArCrUrUrGrArArArArArGrUrGrGrCrArCrCrGrArGrUrCrGrGrUrGrCrU*mU*mU*mU"
  result_value: 0.62
- molecule: "GA217: PCSK9 gRNA; protospacer GTGGTCAGCGGCCGGGATGC (SEQ ID NO: 211) (nucleic acid, sugars from the 5' end m3 r94 m3, linkages s3 o93 s3 (s phosphorothioate, o phosphodiester), T or U not given here) guide: GUGGUCAGCGGCCGGGAUGCGUUUUAGAGCUAGAAAUAGCAAGUUAAAAUAAGGCUAGUCCGUUAUCAACUUGAAAAAGUGGCACCGAGUCGGUGCUUUU"
  result_value: 0.77
- molecule: "GA170: PCSK9 gRNA; protospacer CCAGGACCGCCTGGAGCTGA (SEQ ID NO: 164) (nucleic acid, sugars from the 5' end m3 r94 m3, linkages s3 o93 s3 (s phosphorothioate, o phosphodiester), T or U not given here) guide: CCAGGACCGCCUGGAGCUGAGUUUUAGAGCUAGAAAUAGCAAGUUAAAAUAAGGCUAGUCCGUUAUCAACUUGAAAAAGUGGCACCGAGUCGGUGCUUUU"
  result_value: 2.9
- molecule: "GA198: PCSK9 gRNA; protospacer CCACCGGGAAATCGAGGGCA (SEQ ID NO: 192) (nucleic acid, sugars from the 5' end m3 r94 m3, linkages s3 o93 s3 (s phosphorothioate, o phosphodiester), T or U not given here) guide: CCACCGGGAAAUCGAGGGCAGUUUUAGAGCUAGAAAUAGCAAGUUAAAAUAAGGCUAGUCCGUUAUCAACUUGAAAAAGUGGCACCGAGUCGGUGCUUUU"
  result_value: 0.04
- molecule: "GA158: PCSK9 gRNA; protospacer GCTAGCCTTGCGTTCCGAGG (SEQ ID NO: 152) (nucleic acid) guide: mG*mC*mU*rArGrCrCrUrUrGrCrGrUrUrCrCrGrArGrGrGrUrUrUrUrArGrArGrCrUrArGrArArArUrArGrCrArArGrUrUrArArArArUrArArGrGrCrUrArGrUrCrCrGrUrUrArUrCrArArCrUrUrGrArArArArArGrUrGrGrCrArCrCrGrArGrUrCrGrGrUrGrCrU*mU*mU*mU"
  result_value: 2
- molecule: "GA208: PCSK9 gRNA; protospacer CCAGCATACAGAGTGACCAC (SEQ ID NO: 202) (nucleic acid, sugars from the 5' end m3 r94 m3, linkages s3 o93 s3 (s phosphorothioate, o phosphodiester), T or U not given here) guide: CCAGCAUACAGAGUGACCACGUUUUAGAGCUAGAAAUAGCAAGUUAAAAUAAGGCUAGUCCGUUAUCAACUUGAAAAAGUGGCACCGAGUCGGUGCUUUU"
  result_value: 1.38

q: # return recorded Human Primary Hepatocyte Editing % 100 for entry GA165: PCSK9 gRNA; protospacer CCGTCAGCTCCAGGCGGTCC (SEQ ID NO: 159) (nucleic acid, sugars from the 5' end m3 r94 m3, linkages s3 o93 s3 (s phosphorothioate, o phosphodiester), T or U not given here) guide: CCGUCAGCUCCAGGCGGUCCGUUUUAGAGCUAGAAAUAGCAAGUUAAAAUAAGGCUAGUCCGUUAUCAACUUGAAAAAGUGGCACCGAGUCGGUGCUUUU
a: 4.99

q: # return recorded Human Primary Hepatocyte Editing % 100 for entry GA164: PCSK9 gRNA; protospacer GTCCTCGTCCTCCTGCGCAC (SEQ ID NO: 158) (nucleic acid, sugars from the 5' end m3 r94 m3, linkages s3 o93 s3 (s phosphorothioate, o phosphodiester), T or U not given here) guide: GUCCUCGUCCUCCUGCGCACGUUUUAGAGCUAGAAAUAGCAAGUUAAAAUAAGGCUAGUCCGUUAUCAACUUGAAAAAGUGGCACCGAGUCGGUGCUUUU
a: 2.68

q: # return recorded Human Primary Hepatocyte Editing % 100 for entry GA181: PCSK9 gRNA; protospacer GGCTTCCTGGTGAAGATGAG (SEQ ID NO: 175) (nucleic acid) guide: mG*mG*mC*rUrUrCrCrUrGrGrUrGrArArGrArUrGrArGrGrUrUrUrUrArGrArGrCrUrArGrArArArUrArGrCrArArGrUrUrArArArArUrArArGrGrCrUrArGrUrCrCrGrUrUrArUrCrArArCrUrUrGrArArArArArGrUrGrGrCrArCrCrGrArGrUrCrGrGrUrGrCrU*mU*mU*mU
a: 28.87

q: # return recorded Human Primary Hepatocyte Editing % 100 for entry GA221: PCSK9 gRNA; protospacer TCATGGCACCCACCTGGCAG (SEQ ID NO: 215) (nucleic acid, sugars from the 5' end m3 r94 m3, linkages s3 o93 s3 (s phosphorothioate, o phosphodiester), T or U not given here) guide: UCAUGGCACCCACCUGGCAGGUUUUAGAGCUAGAAAUAGCAAGUUAAAAUAAGGCUAGUCCGUUAUCAACUUGAAAAAGUGGCACCGAGUCGGUGCUUUU
a: 1.11

q: # return recorded Human Primary Hepatocyte Editing % 100 for entry GA247: PCSK9 gRNA; protospacer CCTCGCCAGGCGCTGGCAGG (SEQ ID NO: 240) (nucleic acid, sugars from the 5' end m3 r94 m3, linkages s3 o93 s3 (s phosphorothioate, o phosphodiester), T or U not given here) guide: CCUCGCCAGGCGCUGGCAGGGUUUUAGAGCUAGAAAUAGCAAGUUAAAAUAAGGCUAGUCCGUUAUCAACUUGAAAAAGUGGCACCGAGUCGGUGCUUUU
a: 0.25
